# Tested on: TAOK3
# measurementContext: Compound Concentration (nM):1000;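 note: KINOMEscan scanMAX binding as percent activity remaining versus control; lower means stronger binding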
attributeMeasured: Percent Control (%)
Numbers only, in %.

Some entries whose results are on file:
INPUT: If you can, please state the reported Percent Control value of NS(=O)(=O)c1ccc(Nc2ncc(-c3ccccc3)o2)cc1 [GW572399X] .
OUTPUT: 86

INPUT: Would you kindly share the measured Percent Control for COc1cc2ncnc(Nc3ccc4c(cnn4Cc4ccccc4)c3)c2cc1OC.Cl [GW282449A] ?
OUTPUT: 100

***
INPUT: Consider the molecule Cl.c1ccc(Cc2nc3ccc(Nc4ncnc5ccccc45)cc3[nH]2)cc1 [GR269666A] and give its measured Percent Control.
OUTPUT: 100

###

# System: TAOK1
# measurementContext: Compound Concentration (nM):1000
attributeMeasured: Percent Control

Please review the entries below; each comes with its answer.
INPUT: API: value(readout= Percent Control, system= TAOK1, query= CN(C)CCNC(=O)Nc1ccc(N(C)c2ccnc(Nc3ccc(CS(C)(=O)=O)cc3)n2)cc1.Cl [GW830900A] )
OUTPUT: 80%

INPUT: What reported Percent Control corresponds to NS(=O)(=O)c1ccc(Nc2ncc(-c3ccccc3)o2)cc1 [GW572399X] on TAOK1?
OUTPUT: 72%

INPUT: Any idea what Percent Control came out for CN1CCN(C(=O)c2ccc(NC(=O)Nc3ccc(N(C)c4ccnc(Nc5ccc(CS(C)(=O)=O)cc5)n4)cc3)cc2)CC1.Cl [GW830263A] on TAOK1?
OUTPUT: 71%

With those in mind, consider the next compound.
INPUT: Form: Entry = C/C(Nc1ccc(S(N)(=O)=O)cc1)=C1/C(=O)Nc2ccccc21 [GW335962X] | System = TAOK1 | Percent Control = ____
OUTPUT: 81%

###

Could you please report measured Percent Control for the items listed next?
# Tested on: MST2
# Construct: gene STK3
# measurementContext: Compound Concentration (nM):1000
Numbers only, in %.

INPUT: So what's the measured Percent Control for this one? Nc1ncnc2occ(-c3ccc(NC(=O)Nc4cc(C(F)(F)F)ccc4F)cc3)c12 [GW770249X]
OUTPUT: 83

INPUT: Quick one: Percent Control for COc1cc(C)c(N(C)C(=O)CN(C)C)cc1Nc1nc(Nc2cccc(F)c2C(N)=O)c2cc[nH]c2n1 [GSK2219385] ?
OUTPUT: 85

INPUT: Report Percent Control for COc1cc2ncnc(Nc3ccc4c(cnn4Cc4ccccc4)c3)c2cc1OC.Cl [GW282449A] please.
OUTPUT: 100

API: the following record is the query input.
INPUT: Name the reported Percent Control value associated with the compound COc1ccccc1-c1cc(/C=C2\C(=O)Nc3ncc(Br)cc32)cc(Br)c1O [GW442130X]
OUTPUT: 95

###

# System: TLK1
# measurementContext: Compound Concentration (nM):1000
attributeMeasured: Percent Control (%)
Answers are plain numbers, in %.

Check out these entries, answers already filled in.
INPUT: Please provide the recorded Percent Control for CN1CCN(C(=O)c2ccc(NC(=O)Nc3ccc(N(C)c4ccnc(Nc5ccc(CS(C)(=O)=O)cc5)n4)cc3)cc2)CC1.Cl [GW830263A] , tested on TLK1.
OUTPUT: 86

INPUT: Can you look up Percent Control on TLK1 for CC1=C(C(=O)Nc2ccc3[nH]ncc3c2)C(c2ccc3ccccc3c2)CC(=O)N1 (centres unmarked) [GSK270822A] ?
OUTPUT: 89

INPUT: Fill in the recorded Percent Control for this compound, with TLK1 as test system: COc1cc(C=NNc2ncnc3c2cnn3-c2ccccc2)ccc1O [GW513184X]
OUTPUT: 100

INPUT: Please tell me: Percent Control of COC(=O)Nc1nc2ccc(Oc3ccc(NC(=O)Nc4cc(C(F)(F)F)ccc4F)cc3)cc2s1.Cl [GW693917A] , system TLK1?
OUTPUT: 87

INPUT: What reported Percent Control corresponds to Cl.O=S1CCN(Cc2ccc(-c3ccc4ncnc(Nc5ccc(OCc6ccccc6)c(F)c5)c4c3)o2)CC1 [GW576924A] on TLK1?
OUTPUT: 100

Parameter requested: Percent Control. Apply to each item below.
1. Cl.O=C(O[C@H]1CN[C@H](C#Cc2cc3ncnc(Nc4ccc5c(cnn5Cc5ccccc5)c4)c3s2)C1)N1CCOCC1 [GSK200398A]
2. CCc1ccc(Oc2nccc(-c3c(-c4ccc(F)cc4)ncn3C3CCNCC3)n2)cc1

OUTPUT:
80
91

INPUT: Entry NS(=O)(=O)c1ccc(Nc2ncc(-c3ccccc3)o2)cc1 [GW572399X] , system TLK1: what Percent Control was measured?
OUTPUT: 63

###

# Tested on: RSK4(Kin.Dom.2-C-terminal)
# Construct: gene RPS6KA6
# measurementContext: Compound Concentration (nM):1000
attributeMeasured: Percent Control (%)
One number for each entry, in %.

A selection of reference data follows.
INPUT: For RSK4(Kin.Dom.2-C-terminal), provide Percent Control of CN(C)CCNC(=O)Nc1ccc(N(C)c2ccnc(Nc3ccc(CS(C)(=O)=O)cc3)n2)cc1.Cl [GW830900A] please.
OUTPUT: 87

INPUT: Item: COc1ccc(COc2ccc(Cc3cnc(N)nc3N)cc2OC)cc1 [GW632580X] Test system: RSK4(Kin.Dom.2-C-terminal) Read-out: Percent Control Value: ?
OUTPUT: 93

INPUT: Recall the recorded Percent Control for Cl.c1ccc(Cc2nc3ccc(Nc4ncnc5ccccc45)cc3[nH]2)cc1 [GR269666A] with RSK4(Kin.Dom.2-C-terminal) and state it.
OUTPUT: 98

INPUT: Lab note: need Percent Control with RSK4(Kin.Dom.2-C-terminal) for entry Cl.O=C(Nc1ccc(Oc2ccc3[nH]c(NC(=O)c4ccco4)nc3c2)cc1)Nc1cc(C(F)(F)F)ccc1F [GW683134A] , please look it up.
OUTPUT: 100

INPUT: What reported Percent Control corresponds to O=C1Nc2ccc(C(=O)c3ccco3)cc2C1=Cc1cc(Cl)c(O)c(Cl)c1 [GW406108X] on RSK4(Kin.Dom.2-C-terminal)?
OUTPUT: 32

Need Percent Control for each of these molecules.
1. COc1cc(C)c(N(C)C(=O)CN(C)C)cc1Nc1nc(Nc2cccc(F)c2C(N)=O)c2cc[nH]c2n1 [GSK2219385]
2. COc1cc(N2CCN(C(C)C)CC2)ccc1Nc1nc(Nc2ccc(F)cc2C(=O)NC[C@@H](O)CO)c2cc[nH]c2n1 [GSK1392956A]
3. COc1ccccc1-c1cc(/C=C2\C(=O)Nc3ncc(Br)cc32)cc(Br)c1O [GW442130X]
4. COc1cccc(-n2ncc3c(N/N=C/c4ccncc4)ncnc32)c1 [GW784752X]
5. C/C(Nc1ccc(S(N)(=O)=O)cc1)=C1/C(=O)Nc2ccccc21 [GW335962X]

OUTPUT:
1: 82; 2: 86; 3: 100; 4: 100; 5: 86

Below is a list of molecules. For each, state its recorded Percent Control.
1. COc1cc2ncnc(Nc3ccc4c(cnn4Cc4ccccc4)c3)c2cc1OC.Cl [GW282449A]
2. COc1ccc2cc(-c3c(-c4ccncc4)nc(-c4ccc(S(C)(=O)=O)cc4C)n3C)ccc2c1 [SB-633825]
3. Cl.O=C(O[C@H]1CN[C@H](C#Cc2cc3ncnc(Nc4ccc5c(cnn5Cc5ccccc5)c4)c3s2)C1)N1CCOCC1 [GSK200398A]
4. NS(=O)(=O)c1ccc(N/N=C2\C(=O)Nc3ccc(Cl)cc32)cc1 [GW280670X]

OUTPUT:
100
83
83
100

Please report Percent Control for every entry that follows.
1. O=C(Nc1n[nH]c2nc(-c3ccc(O)cc3)c(Br)cc12)C1CC1 [SB-725317]
2. CCn1c(-c2nonc2N)nc2c(C#CC(C)(C)O)nc(OCCNC)cc21.Cl [GSK949675]
3. COc1ccc2[nH]c3c4[nH]c5ccc(OC)cc5c4c4c(c3c2c1)C(=O)NC4=O [GW296115X]

OUTPUT:
100
100
61

// each listed molecule needs a value for Percent Control
1. NS(=O)(=O)c1ccc(Nc2ncc(-c3ccccc3)o2)cc1 [GW572399X]
2. NS(=O)(=O)c1ccc(N/N=C2\C(=O)Nc3ccc(C(=O)NCCc4c[nH]cn4)cc32)cc1 [GW300660X]
3. Cl.O=S1CCN(Cc2ccc(-c3ccc4ncnc(Nc5ccc(OCc6ccccc6)c(F)c5)c4c3)o2)CC1 [GW576924A]

OUTPUT:
[100, 100, 100]

# per-item lookup of Percent Control; items listed below
1. COc1cc(/C=N/Nc2ncnc3[nH]ncc23)ccc1O [GW578748X]
2. C[C@@H](Oc1cc(-n2cnc3ccc(OC4CCN(C)CC4)cc32)sc1C(N)=O)c1ccccc1Cl [GSK579289A]
3. Cc1cc(O)cc(C)c1/C=C/c1cncc(C(N)=O)c1 [GW435821X]

OUTPUT:
[100, 80, 100]
